# Tested on: Rattus norvegicus
# Experimental Protocol: The compound was tested ex vivo at a dose of 0.15 mmol/kg for collagen induced platelet aggregation in rat
# Type: functional
Measured Activity, listed per entry for reference.

Worked cases, Activity given:
Tested on Rattus norvegicus: `CN(CCn1sc2ccccc2c1=O)c1ccccc1` . Observed Activity: 1.1

Tested on Rattus norvegicus: O=C1C(CC[S+]([O-])c2ccccc2)C(=O)N(c2ccccc2)N1c1ccccc1 (stereo not drawn) . Observed Activity: 1.1

Tested on Rattus norvegicus: `O=c1c2ccccc2sn1CCN1CC2CCC(CC2)C1` . Observed Activity: 2.2

***
Tested on Rattus norvegicus: `Cc1cc2sn(CCN3CCCC3)c(=O)c2cc1C` . Observed Activity: 2.7

Tested on Rattus norvegicus: `O=c1c2cc(Cl)c(Cl)cc2sn1CCc1ccccn1` . Observed Activity: 1

Tested on Rattus norvegicus: `O=c1c2cc(Cl)c(Cl)cc2sn1CCN1CCCCC1` . Observed Activity: 1.5

Tested on Rattus norvegicus: `CCN(CC)CCn1sc2ccccc2c1=O` . Observed Activity: 2.6

Tested on Rattus norvegicus: `O=c1c2ccccc2sn1CCN1CCOCC1` . Observed Activity: 1

Tested on Rattus norvegicus: `COc1cc2sn(CCN3CCCC3)c(=O)c2cc1OC` . Observed Activity: 1.8

Tested on Rattus norvegicus: `COc1cc2sn(CCN3CCCCC3)c(=O)c2cc1OC` . Observed Activity: 2.2

Tested on Rattus norvegicus: `COc1cc2sn(CCc3ccccn3)c(=O)c2cc1OC` . Observed Activity: 2.8

Tested on Rattus norvegicus: `CCN(CC)CCn1sc2cc(Cl)c(Cl)cc2c1=O` . Observed Activity: 2.1

Tested on Rattus norvegicus: `O=c1c2cc(Cl)c(Cl)cc2sn1CCN1CCCC1` . Observed Activity: 1.8
